method.description: Pharmacokinetic study: plasma triterpenoids by LCMS, non-compartmental analysis
Parameters: species or system beagle dogs
reported.conditions: male, beagle, dog, in vivo, po, 20 mg/kg, Tmax
From the text: The proposed animal experiment was approved by the Institutional Animal Care and Use Committee of the Chulalongkorn University Laboratory Animal Centre (CULAC), Chulalongkorn University, Bangkok, Thailand (Protocol number 2073029, Approval date: […] The dogs were fed with a normal dog diet (Beauty Pro, Nippon Pet Food Co. Ltd.) once a day and water ad libitum. Two groups of four dogs were randomly used with a 2-week washout period. […]
quantity.name: Tmax (h)
Supply the numeric figure in h, leaving out any unit text.

# get_value(readout='Tmax', item= C[C@H]1[C@H](C)CC[C@]2(C(=O)O)CC[C@]3(C)C(=CC[C@@H]4[C@@]5(C)C[C@@H](O)[C@H](O)[C@@](C)(CO)[C@@H]5CC[C@]43C)[C@H]12 )
2

FYI, the data here is from paper PMC9715946.
